System: KM12 colon
test name: NCI tumour cell line growth inhibition, 48 h
Measured TGI of individual entries
reported metric: TGI

>>> measurement("Cc1cc(O)c(C=O)c(C)c1CCC1(C)C=Cc2cc(O)ccc2O1 (stereo not drawn)")
"> 100 µM"
>>> measurement("CCOC(=O)/C(C#N)=C/c1ccc(SCc2ccco2)c([N+](=O)[O-])c1")
"> 100 µM"
>>> measurement("Cc1ccc(S(=O)(=O)N(CCN2C(=O)c3ccccc3C2=O)c2cc3c4c(c2)Oc2cc(N(CCN5C(=O)c6ccccc6C5=O)S(=O)(=O)c5ccc(C)cc5)cc5c2C4(C)c2c(cc(N(CCN4C(=O)c6ccccc6C4=O)S(=O)(=O)c4ccc(C)cc4)cc2O5)O3)cc1")
"> 100 µM"

----------
System: T-47D breast
test name: NCI tumour cell line growth inhibition, 48 h
reported metric: TGI (µM)

>>> measurement("O=CN/N=C/c1ccc(Cl)c([N+](=O)[O-])c1")
51.7
>>> measurement("COc1cc2c(cc1OCc1ccccc1)N=CC1C[C@@H](O)CN1C2=O (some centres undefined)")
7.09
>>> measurement("Cc1cc(Cc2cc(Cc3cc(C)cc(C(C)(C)C)c3O)c(C)cc2C)c(O)c(C(C)(C)C)c1")
34.8
>>> measurement("OCc1ccc(N(Cc2ccc(F)cc2)CC2CC2)cc1Cl")
2.86
>>> measurement("CC(C)OC(=O)c1cc(NS(=O)(=O)c2ccc3ccccc3c2)cc(C(=O)OC(C)C)c1")
58.5

----------
System: MOLT-4 leukemia
test name: NCI tumour cell line growth inhibition, 48 h
reported metric: TGI (µM)

>>> measurement("NCCc1ccc2oc3cc(=O)c4ccccc4c-3nc2c1")
5.52
>>> measurement("CCOC(=O)c1ccc(NC(=O)O/N=C(/Cl)CC)cc1")
4.51
>>> measurement("O=c1[nH]c2[nH]c(-c3ccc(Br)cc3)cc2c2ccccc12")
26.9
>>> measurement("CC(=O)OC1CCC2(C)C(CCC3C4CC=C(C5(C)OCCO5)C4(C)CCC32)C1 (stereo not given)")
65.5
>>> measurement("ClCCn1cnc2c(SCc3ccccc3Cl)ncnc21")
9.4
>>> measurement("C=C1C(=O)OC2/C=C(/CO)C3(O)CC(O)C(C)(CC(OC(=O)/C(C)=C/C)C12)O3 (stereo not given)")
9.95
>>> measurement("C=CCOC(=O)C[C@H](NC(=O)[C@H](Cc1ccc(O)cc1)NCC(F)(F)F)C(=O)OCC=C")
60.1
>>> measurement("CC(=O)OC1Oc2ccccc2-c2oc(=O)c(-c3ccc(F)cc3)cc21 (stereo not given)")
31.1
>>> measurement("O=C(Nc1cccc(Cl)c1)Nc1nccs1")
82
>>> measurement("CC[C@@]1(O)C(=O)OCc2c1cc1n(c2=O)Cc2c-1nc1ccccc1c2Cl")
0.113
>>> measurement("CCOC(=O)c1cn2c(n1)sc1cc(C)c(C)cc12")
91.1
>>> measurement("O=[N+]([O-])c1ccc2c(c1)C(=NO)c1cc([N+](=O)[O-])ccc1-2")
7.61
>>> measurement("COc1cc(/C=C2\\N=C(c3ccccc3)N(c3nc4ccc(Sc5ccccc5)cc4[nH]3)C2=O)ccc1O")
69.4

----------
Measured TGI of individual entries
System: LOX IMVI melanoma
test name: NCI tumour cell line growth inhibition, 48 h
reported metric: TGI

>>> measurement("CN1c2ccccc2NC(CC(=O)O)C2CC=CN21 (stereo not given)")
"> 100 µM"
>>> measurement("O=C(Nc1ccc(Cl)cc1)c1cc2c(cc1Cl)Sc1nccn1S2(=O)=O")
"> 100 µM"
>>> measurement("O=c1c2ccc(Cl)cc2oc2c(CNc3ccc(S(=O)(=O)Nc4nccs4)cc3)cccc12")
"> 100 µM"
>>> measurement("O=C(N/N=C/c1c(Cl)cccc1Cl)c1cccnc1Nc1cccc(C(F)(F)F)c1")
"19 µM"
>>> measurement("O=C1CCC2(c3ccc(F)cc3)Nc3ncccc3N12 (stereo not given)")
"> 100 µM"
>>> measurement("COc1ccc(OC)c2c1C(=O)C(=O)C(Cl)=C2O")
"> 100 µM"
>>> measurement("O=C(CCc1ccc(O)c(O)c1)OCCc1ccccc1")
"54.8 µM"
>>> measurement("Cc1nn(CCO)c(C)c1N=[N+]([O-])c1c(C)nn(CCO)c1C")
"7.69 µM"
>>> measurement("COc1cc([C@@H]2C3C(=O)c4ccccc4C3[C@@H](c3cc(OC)c(OC)c(OC)c3)C23Cc2ccccc2C3=O)cc(OC)c1OC (stereo not given in full)")
"> 100 µM"
>>> measurement("Cn1cc(-c2ccc(-c3cn(C)c4ccc(Cl)cc34)[nH]2)c2cc(Cl)ccc21")
"2.67 µM"
